Origin of measurements: patent US20230413824A1

# Tested on: Pyricularia oryzae
# method-notes: whole plant or invertebrate
# Format: in vivo
# assay-conditions: Pyricularia oryzae, read-out: Observed Efficacy
readout-label: pest or weed control at 20 ppm (%)
Answer format: numeric, % implied, no suffix.

Guide cases for pest or weed control at 20 ppm, answers given:
CCN(C)C=Nc1cc(C)cc(Cc2cccc(F)c2)c1C : 33
CCN(C)C=Nc1cc(C)cc(Cc2ccc(C)cc2)c1C : 37
CCN(C)C=Nc1cc(F)cc(Cc2cccc(C)c2)c1C : 47

Kindly review the next compound as well.
Query :: May I ask what pest or weed control at 20 ppm has been recorded for CCN(C)C=Nc1cc(Cl)cc(Cc2cccc(C)c2)c1C ?
Result :: 37

====

# System: Pyricularia oryzae
# method-notes: whole plant or invertebrate
# Assay type: in vivo
# assay-conditions: single compound, Conc. 0.1 ppm, preventive spray, rice
Listed compounds paired with reported Observed Efficacy
Answer format: numeric, % implied, no suffix.

Cn1cc(C(=O)Nc2ccccc2-c2cc(F)c(F)c(F)c2)c(C(F)F)n1 [Fluxapyroxad, fluxapyroxad] : 32
CC(O)(Cn1cncn1)c1ccc(Oc2ccc(Cl)cc2)cc1C(F)(F)F (stereo not shown) [Mefentrifluconazole, mefentrifluconazole] : 24
CO/C=C(/C(=O)OC)c1ccccc1COc1cccc(C(F)(F)F)n1 [Picoxystrobin, picoxystrobin] : 33

Query :: May I ask what Observed Efficacy has been recorded for CO/C=C(/C(=O)OC)c1ccccc1Oc1cc(Oc2ccccc2C#N)ncn1 [Azoxystrobin, azoxystrobin] ?
Result :: 26

====

# Test system: Pyricularia oryzae
# method-notes: whole plant or invertebrate
# Type: in vivo
# assay-conditions: single compound, Conc. 0.05 ppm, preventive spray, rice
Listed compounds paired with reported Observed Efficacy
Answer format: numeric, % implied, no suffix.

Guide cases for Observed Efficacy, answers given:
CC(O)(Cn1cncn1)c1ccc(Oc2ccc(Cl)cc2)cc1C(F)(F)F (centres unmarked) : 21
Cn1cc(C(=O)Nc2ccccc2-c2cc(F)c(F)c(F)c2)c(C(F)F)n1 : 24
CO/C=C(/C(=O)OC)c1ccccc1COc1cccc(C(F)(F)F)n1 : 16
Cn1cc(C(=O)Nc2cccc3c2[C@@H]2CC[C@H]3C2=C(Cl)Cl)c(C(F)F)n1 (racemic) : 17

Kindly review the next compound as well.
Query :: May I ask what Observed Efficacy has been recorded for CO/C=C(/C(=O)OC)c1ccccc1Oc1cc(Oc2ccccc2C#N)ncn1 ?
Result :: 21

====

Listed compounds paired with reported pest or weed control at 1 ppm
# Tested on: Septoria nodorum
# method-notes: Parastagonospora nodorum/Septoria nodorum/Stagnospora nodorum test in wheat (preventive, glasshouse)
# Format: in vivo
# assay-conditions: Parastagonospora nodorum, single compound, 1 ppm, read-out: Observed Efficacy (%)
Answer format: numeric, % implied, no suffix.

Guide cases for pest or weed control at 1 ppm, answers given:
CCN(C)C=Nc1cc(C)cc(Cc2cccc(F)c2)c1C : 20
CCN(C)C=Nc1cc(Cl)cc(Cc2cccc(C)c2)c1C : 17
CCN(C)C=Nc1cc(F)cc(Cc2cccc(C)c2)c1C : 23
CCN(C)C=Nc1cc(C)cc(Cc2ccc(C)cc2)c1C : 13

Kindly review the next compound as well.
Query :: May I ask what pest or weed control at 1 ppm has been recorded for CCN(C)C=Nc1cc(C)cc(Cc2ccccc2C)c1C ?
Result :: 13

====

# Test system: Phakopsora pachyrhizi
# method-notes: Phakopsora pachyrhizi test in soybean (preventive, glasshouse)
# Format: in vivo
# assay-conditions: single compound, 0.05 ppm, preventive spray on soybean
Listed compounds paired with reported Observed Efficacy (%)
Answer format: numeric, % implied, no suffix.

CO/C=C(/C(=O)OC)c1ccccc1Oc1cc(Oc2ccccc2C#N)ncn1 : 15
C[C@@H]1CC(C)(C)c2cccc(NC(=O)c3cn(C)nc3C(F)F)c21 : 18
CO/C=C(/C(=O)OC)c1ccccc1COc1cccc(C(F)(F)F)n1 : 20

Query :: May I ask what Observed Efficacy (%) has been recorded for Cn1cc(C(=O)Nc2cccc3c2[C@@H]2CC[C@H]3C2=C(Cl)Cl)c(C(F)F)n1 (racemic) ?
Result :: 27

Query :: Also need CNC(=O)/C(=N/OC)c1ccccc1Oc1ccccc1 , thanks.
Result :: 45

Query :: Also need Cn1cc(C(=O)Nc2ccc(F)cc2-c2ccc(Cl)c(Cl)c2)c(C(F)F)n1 , thanks.
Result :: 15

====

# Test system: Alternaria solani
# method-notes: Alternaria solani test in tomato (preventive, glasshouse)
# Format: in vivo
# assay-conditions: single compound, 0.05 ppm, preventive
Listed compounds paired with reported Observed Efficacy (%)
Answer format: numeric, % implied, no suffix.

Guide cases for Observed Efficacy (%), answers given:
CC1COC(Cn2cncn2)(c2ccc(Oc3ccc(Cl)cc3)cc2Cl)O1 (stereo not shown) : 42
N#Cc1sc2c(=O)c3ccccc3c(=O)c=2sc1C#N : 21
O=C(Nc1ccccc1-c1ccc(Cl)cc1)c1cccnc1Cl : 13

Kindly review the next compound as well.
Query :: May I ask what Observed Efficacy (%) has been recorded for CC(O)(Cn1cncn1)c1ccc(Oc2ccc(Cl)cc2)cc1C(F)(F)F (stereo not shown) ?
Result :: 12

====

# Tested on: Erysiphe cichoracearum
# method-notes: Erysiphe cichoracearum test in cucumber (preventive, glasshouse)
# Assay type: in vivo
# assay-conditions: single compound, 0.1 ppm, preventive spray on cucumber
Could you label it Y if measured Observed Efficacy (%) is 40% or higher, and N otherwise?

Reference set (6 entries):
CO/C=C(/C(=O)OC)c1ccccc1COc1cccc(C(F)(F)F)n1 [Picoxystrobin, picoxystrobin] : Y
COC(=O)N(OC)c1ccccc1COc1ccn(-c2ccc(Cl)cc2)n1 [Pyraclostrobin, pyraclostrobin] : N
O=[N+]([O-])c1cc(C(F)(F)F)c(Cl)c([N+](=O)[O-])c1Nc1ncc(C(F)(F)F)cc1Cl [Fluazinam] : N
C[C@@H]1CC(C)(C)c2cccc(NC(=O)c3cn(C)nc3C(F)F)c21 [Inpyrfluxam] : N
O=C1c2ccccc2C(=O)N1SC(Cl)(Cl)Cl [Folpet, folpet] : N
O=C(Nc1ccccc1-c1ccc(Cl)cc1)c1cccnc1Cl [Boscalid, boscalid] : N

Query :: Could you verify whether the entry CC1CC(C)(C)c2c(F)ccc(NC(=O)c3cn(C)nc3C(F)F)c21 (centres unmarked) [Fluindapyr] shows Observed Efficacy (%) of no less than 40%?
Result :: N

Query :: Also need CC(O)(Cn1cncn1)c1ccc(Oc2ccc(Cl)cc2)cc1C(F)(F)F (centres unmarked) [Mefentrifluconazole, mefentrifluconazole] , thanks.
Result :: N

Query :: Also need Cn1cc(C(=O)Nc2cccc3c2[C@@H]2CC[C@H]3C2=C(Cl)Cl)c(C(F)F)n1 (racemic) [Benzovindiflupyr, benzovindiflupyr] , thanks.
Result :: N

Query :: Also need CO/C=C(/C(=O)OC)c1ccccc1Oc1cc(Oc2ccccc2C#N)ncn1 [Azoxystrobin, azoxystrobin] , thanks.
Result :: Y

Query :: Also need N#Cc1sc2c(=O)c3ccccc3c(=O)c=2sc1C#N [Dithianon, dithianon] , thanks.
Result :: N

====

Listed compounds paired with reported Observed Efficacy (%)
# Tested on: Alternaria solani
# method-notes: Alternaria solani test in tomato (preventive, glasshouse)
# Assay type: in vivo
# assay-conditions: single compound, 0.1 ppm, preventive spray
Answer format: numeric, % implied, no suffix.

Guide cases for Observed Efficacy (%), answers given:
Cn1cc(C(=O)Nc2ccccc2-c2cc(F)c(F)c(F)c2)c(C(F)F)n1 : 56
CO/C=C(/C(=O)OC)c1ccccc1COc1cccc(C(F)(F)F)n1 : 26
CO/C=C(/C(=O)OC)c1ccccc1Oc1cc(Oc2ccccc2C#N)ncn1 : 49
Cn1cc(C(=O)Nc2cccc3c2[C@@H]2CC[C@H]3C2=C(Cl)Cl)c(C(F)F)n1 (racemic) : 29
Cn1cc(C(=O)Nc2ccc(F)cc2-c2ccc(Cl)c(Cl)c2)c(C(F)F)n1 : 29
C[C@@H]1CC(C)(C)c2cccc(NC(=O)c3cn(C)nc3C(F)F)c21 : 23

Query :: May I ask what Observed Efficacy (%) has been recorded for CC(O)(Cn1cncn1)c1ccc(Oc2ccc(Cl)cc2)cc1C(F)(F)F (stereo not shown) ?
Result :: 26

====

Listed molecules paired with reported Observed Efficacy (%)
# System: Phakopsora pachyrhizi
# method-notes: Phakopsora pachyrhizi test in soybean (preventive, glasshouse)
# Assay type: in vivo
# assay-conditions: single compound, 0.1 ppm, preventive spray on soybean
Answer format: numeric, % implied, no suffix.

Guide cases for Observed Efficacy (%), answers given:
CO/C=C(/C(=O)OC)c1ccccc1Oc1cc(Oc2ccccc2C#N)ncn1 : 22
C[C@@H]1CC(C)(C)c2cccc(NC(=O)c3cn(C)nc3C(F)F)c21 : 30
CO/C=C(/C(=O)OC)c1ccccc1COc1cccc(C(F)(F)F)n1 : 28

Query :: May I ask what Observed Efficacy (%) has been recorded for CNC(=O)/C(=N/OC)c1ccccc1Oc1ccccc1 ?
Result :: 56

Query :: Also need Cn1cc(C(=O)Nc2ccc(F)cc2-c2ccc(Cl)c(Cl)c2)c(C(F)F)n1 , thanks.
Result :: 22

Query :: Also need Cn1cc(C(=O)Nc2cccc3c2[C@@H]2CC[C@H]3C2=C(Cl)Cl)c(C(F)F)n1 (racemic) , thanks.
Result :: 38
